- target of assay: ΔF508-CFTR (Homo sapiens, UniProt P13569, DEL508-508)
- Construct: host or cells: CFBE41o-, doxycycline-inducible
- Sequence (P13569 with tags, fused parts or gaps DEL508-508): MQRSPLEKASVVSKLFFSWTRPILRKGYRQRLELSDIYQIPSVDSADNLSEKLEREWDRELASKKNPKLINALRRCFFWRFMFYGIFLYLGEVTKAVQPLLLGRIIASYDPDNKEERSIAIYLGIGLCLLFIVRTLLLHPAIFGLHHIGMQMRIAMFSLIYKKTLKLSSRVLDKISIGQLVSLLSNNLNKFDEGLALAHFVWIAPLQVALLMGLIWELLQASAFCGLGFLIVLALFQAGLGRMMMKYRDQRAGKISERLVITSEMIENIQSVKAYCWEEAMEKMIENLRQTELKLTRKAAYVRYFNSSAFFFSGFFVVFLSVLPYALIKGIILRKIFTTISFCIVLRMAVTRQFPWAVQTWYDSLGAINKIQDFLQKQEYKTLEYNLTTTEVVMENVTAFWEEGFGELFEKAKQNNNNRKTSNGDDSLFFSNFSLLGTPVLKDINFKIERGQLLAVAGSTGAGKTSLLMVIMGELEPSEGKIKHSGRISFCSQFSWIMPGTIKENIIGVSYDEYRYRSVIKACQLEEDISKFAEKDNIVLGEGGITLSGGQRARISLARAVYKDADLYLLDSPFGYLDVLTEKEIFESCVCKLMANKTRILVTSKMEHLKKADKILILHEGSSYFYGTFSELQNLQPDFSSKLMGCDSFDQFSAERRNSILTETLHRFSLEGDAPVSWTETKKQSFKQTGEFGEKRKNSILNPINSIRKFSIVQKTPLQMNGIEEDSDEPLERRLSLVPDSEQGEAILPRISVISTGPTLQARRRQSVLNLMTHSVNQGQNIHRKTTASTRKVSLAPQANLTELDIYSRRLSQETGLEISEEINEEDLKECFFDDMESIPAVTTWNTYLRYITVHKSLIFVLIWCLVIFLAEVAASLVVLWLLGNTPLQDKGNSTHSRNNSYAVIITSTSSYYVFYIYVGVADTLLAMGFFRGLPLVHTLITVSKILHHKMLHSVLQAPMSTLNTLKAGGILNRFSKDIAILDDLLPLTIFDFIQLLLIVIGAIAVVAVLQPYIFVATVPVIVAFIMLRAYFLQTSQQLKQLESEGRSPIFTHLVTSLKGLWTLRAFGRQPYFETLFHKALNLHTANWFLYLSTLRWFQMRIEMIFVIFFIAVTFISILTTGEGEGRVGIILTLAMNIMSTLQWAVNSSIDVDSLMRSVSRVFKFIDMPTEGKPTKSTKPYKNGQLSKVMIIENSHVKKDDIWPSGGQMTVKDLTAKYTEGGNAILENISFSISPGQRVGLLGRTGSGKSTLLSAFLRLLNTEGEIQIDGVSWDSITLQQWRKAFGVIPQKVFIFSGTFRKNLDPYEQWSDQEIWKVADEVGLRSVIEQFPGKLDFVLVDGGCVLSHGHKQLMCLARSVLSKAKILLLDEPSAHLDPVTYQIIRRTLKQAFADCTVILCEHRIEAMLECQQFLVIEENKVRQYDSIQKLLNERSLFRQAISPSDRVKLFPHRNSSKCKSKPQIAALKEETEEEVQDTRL
- assay name: CFTR cell surface levels using HRP-tagged ΔF508-CFTR expressing CFBE cells, in the presence of a co-corrector
- Type: cell-based
- particulars: HRP-tagged ΔF508-CFTR expressing CFBE cells, in the presence of 3 μM co-corrector
Label key: Criterion met means % Activation under 400%; Criterion not met means % Activation of 400% or more.

> print(dat)
                                   compound        label.value
1  CC(C)c1nn(C2CCCCC2)c2nc(C(=O)O)cc(-c3ccc(N4CCC(C#N)CC4)cc3)c12 [compound 185]  Criterion not met
2  O=C(CN1CCN(c2cc(C(=O)O)nc3c2c(C2CCC2)nn3-c2ccccc2)CC1)NC1CCCCC1 [compound 540]      Criterion met
3  Cc1nn(-c2ccccc2)c2nc(C(=O)O)cc(OCC3(C)COC3)c12 [compound 375]      Criterion met
4  CC(O)CN1CCC(N2CCN(c3cc(C(=O)O)nc4c3c(C3CCC3)nn4-c3ccccc3)CC2)CC1 (stereo not shown) [compound 727]      Criterion met

Prompt line: In the record for COc1ccc(-n2nc(C)c3c(-c4ccc(N5CCOCC5)cc4)cc(C(=O)O)nc32)cn1 [compound 61] , is % Activation less than 400%?
Response line: Criterion met

Prompt line: For CC1CN(C2CCN(c3cc(C(=O)O)nc4c3c(C3CCC3)nn4-c3ccccc3)CC2)CC(C)O1 (stereo not shown) [compound 688] , is the recorded % Activation below the cut-off of 400%?
Response line: Criterion not met

Prompt line: Decide: % Activation of Cc1nn(-c2ccccc2)c2nc(C(=O)O)cc(N3CCC(C(=O)N4CCCC4)CC3)c12 [compound 305] strictly below 400%?
Response line: Criterion met

Prompt line: Strictly below 400% in % Activation? CC(C)c1nn(C2CCCCC2)c2nc(C(=O)O)cc(C3=CC(C)(C)OC(C)(C)C3)c12 [compound 402]
Response line: Criterion met

Prompt line: Confirm or reject: % Activation of O=C(O)c1cc(OC[C@@H](F)C2CCOCC2)c2c(C3CCC3)nn(-c3ccccc3)c2n1 [compound 415] lies strictly below 400%
Response line: Criterion met

Prompt line: # TODO verify % Activation < 400% strictly for this compound: O=C(O)c1cc(-c2ccc(N3CCOCC3)cc2)c2c(C3CCCO3)nn(-c3ccccc3)c2n1 (stereo not shown) [compound 186]
Response line: Criterion met

Prompt line: Given CC(C)N1CCN(C2CCN(c3cc(C(=O)O)nc4c3c(C3CCC3)nn4C3CCCCC3)CC2)CC1 [compound 880] , is recorded % Activation strictly lower than 400%?
Response line: Criterion not met

###

Catalogue of % Activation readings, one per entry.
- target of assay: ΔF508-CFTR (Homo sapiens, UniProt P13569, DEL508-508)
- Construct: host or cells: CFBE41o-, doxycycline-inducible
- assay name: CFTR cell surface levels using HRP-tagged ΔF508-CFTR expressing CFBE cells, in the presence of a co-corrector
- Format: cell-based
- particulars: HRP-tagged ΔF508-CFTR expressing CFBE cells, in the presence of 3 μM co-corrector
Give the figure together with its unit, number first.

> print(dat)
                                   compound  measured.metric   result
1  CC(C)c1nn(-c2cccc(C(F)(F)F)c2)c2nc(C(=O)O)cc(-c3ccc(N4CCC(C#N)CC4)cc3)c12     % Activation  519.37%
2  CC(C)(C)c1nn(C2CCCC2)c2nc(C(=O)O)cc(-c3cnc(N4CCOCC4)nc3)c12     % Activation     310%

Prompt line: I am curious: what % Activation value has been reported for Cc1nn(-c2ccccc2)c2nc(C(=O)O)cc(-c3ccc(N4CCN(CCO)CC4)cc3)c12 ?
Response line: 164.5%

Prompt line: Record request: % Activation value, item COCC1(C)CN(c2cc(C(=O)O)nc3c2c(C2CCC2)nn3-c2ccccc2)C1
Response line: 216.55%

Prompt line: Entry Cc1nn(-c2ccccc2)c2nc(C(=O)O)cc(C(=O)N3CCCCC3)c12 : reported % Activation = ?
Response line: 112.2%

Prompt line: Can you look up the measured % Activation of COC[C@H]1CCN(CC2CCN(c3cc(C(=O)O)nc4c3c(C3CCC3)nn4-c3ccccc3)CC2)C1 for me?
Response line: 365%

Prompt line: // returns reported % Activation for input CC(C)c1nn(-c2ccnc(N3CCCC3)c2)c2nc(C(=O)O)cc(-c3ccc(N4CCC(C#N)CC4)nc3)c12
Response line: 389.2%

Prompt line: # % Activation lookup, item CC(C)c1nn(C2CCCCC2)c2nc(C(=O)O)cc(-c3cnc(N4CCCC(C#N)C4)nc3)c12 (stereo not shown)
Response line: 385.85%

Prompt line: Fill in: % Activation of O=C(O)c1cc(-c2ccc(N3CCOCC3)cc2)c2c(C3CCC3)nn(-c3ccc(F)c(F)c3)c2n1 is ___
Response line: 397.5%

Prompt line: Name the recorded % Activation for Cc1nn(-c2ccccc2)c2nc(C(=O)O)cc(N3CC4CC4C3)c12 (stereo not shown) .
Response line: 254.9%

Prompt line: Field request: % Activation | item: Cc1nn(-c2ccccc2)c2nc(C(=O)O)cc(N3CC4(CCCC4)C3)c12
Response line: 233.4%

Prompt line: Entry CC(C)N1CCN(C2CCN(c3cc(C(=O)O)nc4c3c(C3CCC3)nn4-c3ccc(F)cc3)CC2)CC1 has what % Activation?
Response line: 446.25%

Prompt line: % Activation lookup needed for CC(C)c1nn(-c2ccc(F)cc2)c2nc(C(=O)O)cc(N3CCC[C@@H](O)C3)c12 , thanks.
Response line: 283.6%

Prompt line: I am curious: what % Activation value has been reported for O=C(O)c1cc(N2CCC(N3CCOCC3)CC2)c2c(C3CCC3)nn(-c3ccnc(OC4CCOCC4)c3)c2n1 ?
Response line: 352.1%

Prompt line: Could you tell me which % Activation is on file for O=C(O)c1cc(N2CCCOCC2)c2c(C3CCC3)nn(-c3ccccc3)c2n1 ?
Response line: 247.05%

Prompt line: I have this compound here, CC(C)c1nn(C2CCCCC2)c2nc(C(=O)O)cc(N3CCC(C#N)CC3)c12 , and I need its recorded % Activation.
Response line: 334.25%

###

Recorded % Activation, one value per entry.
- target of assay: ΔF508-CFTR (Homo sapiens, UniProt P13569, DEL508-508)
- Construct: host or cells: CFBE41o-, doxycycline-inducible
- assay name: CFTR cell surface levels using HRP-tagged ΔF508-CFTR expressing CFBE cells, in the presence of a co-corrector
- Assay type: cell-based
- particulars: HRP-tagged ΔF508-CFTR expressing CFBE cells, in the presence of 3 μM co-corrector

Answered cases to consult:
> print(dat)
                                   molecule   result
1  O=C(O)c1cc(N2CC[C@@H](F)C2)c2c(C3CCC3)nn(-c3ccccc3)c2n1  287.85%
2  CC(C)c1nn(-c2cccc(N3CCCC3)c2)c2nc(C(=O)O)cc(-c3ccc(N4CCC(C#N)CC4)cc3)c12  645.97%
3  O=C(O)c1cc(N2CCC(CN3CCOCC3)CC2)c2c(C3CCC3)nn(-c3ccc(F)cc3)c2n1  545.15%
4  CC(C)c1nn(C2CCCCC2)c2nc(C(=O)O)cc(-c3ccc(N4CCCC(F)C4)nc3)c12 (centres unmarked)  484.45%
5  Cc1cccc(-n2nc(C(C)C)c3c(N4CCCC4)cc(C(=O)O)nc32)c1  380.52%

Prompt line: Name the reported % Activation value associated with the molecule CC(C)c1nn(-c2ccc(F)cc2)c2nc(C(=O)O)cc(OCCCN3CCCCC3)c12
Response line: 260.3%

Prompt line: Would you kindly share the measured % Activation for Cc1nn(C2CCCC2)c2nc(C(=O)O)cc(-c3ccc(N4CCOCC4)nc3)c12 ?
Response line: 237.45%

Prompt line: # query: % Activation of entry Cc1nn(-c2ccccc2)c2nc(C(=O)O)cc(-c3ccc(N(C)C4CCOCC4)nc3)c12
Response line: 379.07%

###

- target of assay: ΔF508-CFTR (Homo sapiens, UniProt P13569, DEL508-508)
- Construct: host or cells: CFBE41o-, doxycycline-inducible
- assay name: CFTR cell surface levels using HRP-tagged ΔF508-CFTR expressing CFBE cells, in the presence of a co-corrector
- Assay type: cell-based
- particulars: HRP-tagged ΔF508-CFTR expressing CFBE cells, in the presence of 3 μM co-corrector; read-out: EC50
measured metric: log10 of EC50 (log10 of the value in nM)
Reminder: these figures are log10 of reported EC50, in nM before transformation.

> print(dat)
                                   compound  measured.metric  result
1  CC(C)c1nn(-c2ccc(F)cc2)c2nc(C(=O)O)cc(N3CCC(CCN4CCN(C)CC4)CC3)c12    log10 of EC50    2.75
2  O=C(O)c1cc(N2CCC(CCN3CCOCC3)CC2)c2c(C3CCC3)nn(C3CCCCC3)c2n1    log10 of EC50    1.86
3  Cc1nn(-c2ccccc2)c2nc(C(=O)O)cc(OCCN3CCS(=O)(=O)CC3)c12    log10 of EC50    3.28
4  O=C(O)c1cc(N2CCC3(CC2)CCN(C2CCC2)CC3)c2c(C3CCC3)nn(-c3ccc(F)cc3)c2n1    log10 of EC50    2.34

Prompt line: Look up log10 of EC50 with ΔF508-CFTR (Homo sapiens, UniProt P13569, DEL508-508) for this compound: O=C(O)c1cc(N2CCN(CC3CC3)CC2)c2c(C3CCC3)nn(-c3ccccc3)c2n1
Response line: 2.96

Prompt line: What is its log10 of EC50 for ΔF508-CFTR (Homo sapiens, UniProt P13569, DEL508-508)? Entry: CN(C)C(=O)N1CCN(c2cc(C(=O)O)nc3c2c(C2CCC2)nn3-c2ccccc2)CC1
Response line: 2.17

Prompt line: API: value(readout= log10 of EC50, system= ΔF508-CFTR (Homo sapiens, UniProt P13569, DEL508-508), query= CC(C)c1nn(-c2cccc(N3CCCC3)c2)c2nc(C(=O)O)cc(-c3ccc(N(C)C4CCOCC4)nc3)c12 )
Response line: 2.71

Prompt line: Please state recorded log10 of EC50 (tested on ΔF508-CFTR (Homo sapiens, UniProt P13569, DEL508-508)) of CC(C)c1nn(-c2ccccc2)c2nc(C(=O)O)cc(-c3cnc(N4CCOCC4)nc3)c12
Response line: 3.72

Prompt line: Quick check: log10 of EC50 on ΔF508-CFTR (Homo sapiens, UniProt P13569, DEL508-508), item COC1CCN(c2cc(C(=O)O)nc3c2c(C2CCC2)nn3-c2ccccc2)CC1 ?
Response line: 2.31

Prompt line: Notebook: pull reported log10 of EC50 for ΔF508-CFTR (Homo sapiens, UniProt P13569, DEL508-508), entry Cc1nn(-c2ccccc2)c2nc(C(=O)O)cc(OCC3CCCCC3)c12
Response line: 3.32

Prompt line: # query: log10 of EC50 | item CC(C)COC(=O)N1CCN(c2cc(C(=O)O)nc3c2c(C2CCC2)nn3-c2ccccc2)CC1 | system: ΔF508-CFTR (Homo sapiens, UniProt P13569, DEL508-508)
Response line: 1.56

Prompt line: Field: log10 of EC50 (ΔF508-CFTR (Homo sapiens, UniProt P13569, DEL508-508)). Entry: CCCN1CCCN(c2cc(C(=O)O)nc3c2c(C2CCC2)nn3-c2ccccc2)CC1
Response line: 2.78

Where do these numbers come from? They come from patent US9796711B2.
